Reference source: patent US20260258035A1

IC50 by entry:
test system: Human breast squamous carcinoma cells HCC1806; assay: Cell function assay (In-Cell Western, PAR/pADPr after MMS); type: cell-based; conditions: HCC1806, compound 1 h then 0.5 mM MMS 1 h, PAR/pADPr antibody, In-Cell Western, read-out: IC50 (nM) in cell function assay

Answered cases to consult:
- compound: "CC1(C(=O)N2C3CC2CN(c2cc(S(=O)(=O)NC4(C#N)CC4)cn4c(-c5nnc(C(F)F)s5)ncc24)C3)CC1 [Example 87]"
  system.name: "Human breast squamous carcinoma cells HCC1806"
  IC50: "< 100 nM"
- compound: "CC(C)C(=O)N1CCN(c2cc(S(=O)(=O)NC3(C(F)F)CC3)cn3c(-c4nnc(C(F)F)s4)ncc23)CC1 [Example 33]"
  system.name: "Human breast squamous carcinoma cells HCC1806"
  IC50: "100 to 500 nM"
- compound: "CC1(O)CCN(c2cc(S(=O)(=O)NC3(C#N)CC3)cn3c(-c4nnc(C(F)F)s4)ncc23)CC1 [Example 65]"
  system.name: "Human breast squamous carcinoma cells HCC1806"
  IC50: "100 to 500 nM"
- compound: "O=S(=O)(NC1(CF)CC1)c1cc(N2CCC3(CCO3)CC2)c2nnc(-c3nnc(C(F)F)s3)n2c1 [Example 110]"
  system.name: "Human breast squamous carcinoma cells HCC1806"
  IC50: "< 100 nM"
- compound: "C[C@H]1CN(c2cc(S(=O)(=O)NC3(C#N)CC3)cn3c(-c4nnc(C(F)F)s4)ncc23)CCN1C(=O)C1(C)CC1 [Example 86]"
  system.name: "Human breast squamous carcinoma cells HCC1806"
  IC50: "< 100 nM"
- compound: "CC(C)C(=O)N1CCN(c2cc(S(=O)(=O)NC3(C(F)F)COC3)cn3c(-c4nnc(C(F)F)s4)ncc23)CC1 [Example 149]"
  system.name: "Human breast squamous carcinoma cells HCC1806"
  IC50: "< 100 nM"

Note to self: IC50 recorded for CC(C)C(=O)N1CCN(c2cc(S(=O)(=O)NC3(CF)CC3)cn3c(-c4nnc(C(F)F)s4)cnc23)CC1 [Example 14] was < 100 nM
